Listing: EC50 of selected compounds
Assay target: PPAR delta (Homo sapiens)
Sequence (Q03181 211-439 limits assumed): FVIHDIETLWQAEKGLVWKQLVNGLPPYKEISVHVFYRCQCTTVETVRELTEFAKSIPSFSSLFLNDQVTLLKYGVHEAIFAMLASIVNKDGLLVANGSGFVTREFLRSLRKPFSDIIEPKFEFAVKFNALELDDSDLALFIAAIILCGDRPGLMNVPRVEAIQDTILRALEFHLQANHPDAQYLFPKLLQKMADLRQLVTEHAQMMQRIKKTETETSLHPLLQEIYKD
Procedure summary: Transient transfection (transactivation) assay in CV-1 cells, GAL4-PPAR chimera, luciferase reporter

Cc1cc(CC(=O)O)cc(S(=O)(=O)N2CCN(c3ccc(C(F)(F)F)c(F)c3)C[C@@H]2C)c1 = < 5 µM

As a next step, examine the compound that follows.
Qu. So what's the measured EC50 for this one? "Cc1ccc(S(=O)(=O)N2[C@H](C)CN(c3ccc(C(F)(F)F)cn3)C[C@@H]2C)cc1CC(=O)O"
Ans. < 5 µM
